Reference source for all entries: ChEMBL document CHEMBL6134898

Assay: Blood to plasma partitioning ratio in rat at 10 uM incubated for 30 mins by LC-MS/MS analysis
Type: ADME, cell-free
Details: whole blood
quantity_name: blood plasma ratio at 0.5 h, 10 µM

{"compound": "O=C1CC[C@H](N2Cc3cc(N4CCN(CC5CCN(c6ccc([C@@H]7c8ccc(O)cc8CC[C@@H]7c7ccccc7)cc6)CC5)CC4)ccc3C2=O)C(=O)N1", "quantity_name": "blood plasma ratio at 0.5 h, 10 µM", "test_value": 0.6}
{"compound": "Cc1ncsc1-c1ccc([C@H](C)NC(=O)[C@@H]2C[C@@H](O)CN2C(=O)[C@@H](NC(=O)CCCCCC(=O)N2CCN(CC[C@H](CSc3ccccc3)Nc3ccc(S(=O)(=O)NC(=O)c4ccc(N5CCN(CC6=C(c7ccc(Cl)cc7)CCC(C)(C)C6)CC5)cc4)cc3S(=O)(=O)C(F)(F)F)CC2)C(C)(C)C)cc1", "quantity_name": "blood plasma ratio at 0.5 h, 10 µM", "test_value": 0.7}
{"compound": "COc1cc(O[C@H]2C(C)(C)[C@H](NC(=O)c3ccc(N4CCC(CN5CCN(c6ccc(C(=O)N[C@H]7CCC(=O)NC7=O)c(F)c6)CC5)CC4)cc3)C2(C)C)ccc1C#N [LUXDEGALUTAMIDE]", "quantity_name": "blood plasma ratio at 0.5 h, 10 µM", "test_value": 0.7}
{"compound": "N#Cc1ccc(O[C@H]2CC[C@H](NC(=O)c3ccc(N4CCC(CN5CCN(c6cc7c(cc6F)C(=O)N([C@H]6CCC(=O)NC6=O)C7=O)CC5)CC4)nn3)CC2)cc1Cl", "quantity_name": "blood plasma ratio at 0.5 h, 10 µM", "test_value": 0.7}
{"compound": "NC(=O)c1ncc(N2CCCCC2)nc1Nc1ccc(C2CCN(C[C@@H]3CCN(c4ccc5c(c4)C(=O)N(C4CCC(=O)NC4=O)C5=O)C3)CC2)cc1 (stereo not given in full)", "quantity_name": "blood plasma ratio at 0.5 h, 10 µM", "test_value": 0.6}

----------
Test: Protein binding in human plasma assessed as free fraction at 5 uM incubated for 18 hrs by LC-MS/MS analysis
Assay type: ADME, cell-free
Parameter fraction unbound at 18 h, 5 µM: see the listing below.

{"compound": "CNC(=O)COc1cc2cc(Nc3nc(N4CCC(O[C@H]5C[C@H](N6CCC(c7ccc8c(c7F)CN(C7CCC(=O)NC7=O)C8=O)CC6)C5)CC4)ncc3Cl)ccc2n(C(C)C)c1=O (stereo partly drawn)", "fraction unbound at 18 h, 5 µM": "< 0.007"}
{"compound": "N#Cc1ccc(O[C@H]2CC[C@H](NC(=O)c3ccc(N4CCC(CN5CCN(c6cc7c(cc6F)C(=O)N([C@H]6CCC(=O)NC6=O)C7=O)CC5)CC4)nn3)CC2)cc1Cl", "fraction unbound at 18 h, 5 µM": "< 0.001"}
{"compound": "NC(=O)c1ncc(N2CCCCC2)nc1Nc1ccc(C2CCN(C[C@@H]3CCN(c4ccc5c(c4)C(=O)N(C4CCC(=O)NC4=O)C5=O)C3)CC2)cc1 (stereo partly drawn)", "fraction unbound at 18 h, 5 µM": "< 0.004"}
